B1: LINE1-mini (parent)
chain: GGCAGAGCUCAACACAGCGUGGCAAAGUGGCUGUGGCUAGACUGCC

- Variants of: B1
- test-protocol: self-cleavage, relative activity (ratio to wild type); higher = more cleavage; in vitro, sequencing; the parent is a self-cleaving ribozyme
Reported values of self-cleavage for individual entries
quantity-kind: self-cleavage

U9A U28A
0.17
C8U A39C
0.2
A25G A41G
0.26
C8G U20G
0.09
U20C G22U
0.4
C8U C13G
0.29
U9G A26G
0.04
A16U U43G
0.02
G7C G22C
0.08
A12C C42A
0.03
A14C U32G
0.07
C13A G27A
0.18
G40U G44A
0.14
C8A G19A
0.38

Ref: the RNAGym collection of RNA variant scans (doi:10.7554/elife.90254)
